- measured on: T1, human CD22-Fc fusion protein (human, UniProt P20273 20-687, limits assumed)
- T1 construct: also called recombinant CD22-Fc fusion protein; not shown: Fc part
- T1 sequence (looked up): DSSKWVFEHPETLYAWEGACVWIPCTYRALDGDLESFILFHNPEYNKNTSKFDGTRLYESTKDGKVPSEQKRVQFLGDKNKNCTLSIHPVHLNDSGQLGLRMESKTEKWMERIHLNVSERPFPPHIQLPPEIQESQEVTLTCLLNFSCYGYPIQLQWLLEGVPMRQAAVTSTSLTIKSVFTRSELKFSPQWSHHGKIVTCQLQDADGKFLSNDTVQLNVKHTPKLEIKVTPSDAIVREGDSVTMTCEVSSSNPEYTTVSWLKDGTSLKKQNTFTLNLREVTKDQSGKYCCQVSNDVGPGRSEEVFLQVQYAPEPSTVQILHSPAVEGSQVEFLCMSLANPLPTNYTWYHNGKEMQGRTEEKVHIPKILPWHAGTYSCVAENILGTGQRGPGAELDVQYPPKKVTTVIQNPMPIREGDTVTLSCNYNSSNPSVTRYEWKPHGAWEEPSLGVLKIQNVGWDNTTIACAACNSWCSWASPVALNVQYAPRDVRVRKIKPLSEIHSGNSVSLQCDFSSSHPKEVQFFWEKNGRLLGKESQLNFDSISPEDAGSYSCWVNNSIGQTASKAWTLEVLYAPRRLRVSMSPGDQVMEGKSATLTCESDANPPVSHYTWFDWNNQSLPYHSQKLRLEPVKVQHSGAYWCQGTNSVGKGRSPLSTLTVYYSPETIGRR
- protocol description: SPR Biacore T200; CD22-Fc captured on Protein G chip, scFv as analyte;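 also: run in 1×HBST buffer, with the response of reference flow cell 1 subtracted from the CD22 capture cell and kinetics fitted in Biacore T200 evaluation software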
Overview of recorded kon for various binders
Field: numeric (M⁻¹ s⁻¹). Do not append units.

binder | endpoint unit | kon
EP97-G05 scFv (scFv, VH-VL orientation; also called EP097-G05; not shown: C-terminal flag and 6xHIS tag) scFv: EVQLVQSGAEVKKPGASVKVSCKASGYTFTSYGISWVRQAPGQGLEWMGWISAYNGNTNYAQKLQGRVTMTTDTSTSTAYMELRSLRSDDTAVYYCARDYGDPSGDDYWGQGTLVTVSSGGGGSGGGGSGGGGSEIVLTQSPATLSVSPGEGVTLSCRASQSVSSNLAWYQQRPGQAPRLLIYGASIKATDVPDRFSGGGSGTDFTLSISNLQSEDFAVYYCQQYHTWPPVTFGGGTKVEIK | M⁻¹ s⁻¹ | 252000
EP97-A01 scFv (scFv, VH-VL orientation; not shown: C-terminal flag and 6xHIS tag) scFv: EVQLVQSGGGVVQPGRSLKLSCAASGFTFSSYGMHWVRQAPGKGLEWVAVIWYDGSNKYYADSVKGRFTISRDNSKNTLYLQMNSLRAEDTAVYYCARDGWKGFDYWGQGTTVTVSSGGGGSGGGGSGGGGSEIVLTQSPATLSVSPGEGVTLSCRASQSVSSNLAWYQQRPGQAPRLLIYGASIKATDVPDRFSGGGSGTDFTLSISNLQSEDFAVYYCQQYHTWPPVTFGGGTKVEIK | M⁻¹ s⁻¹ | 71300
EP97-B03 scFv (scFv, VH-VL orientation; not shown: C-terminal flag and 6xHIS tag) scFv: QLVQSGAEVKKPGASVKVSCKASGYTFSSYGITWVRQAPGQGLEWMGWISAYNGNTNYAQKFQGRVTLTTDTSTSIAYMELRSLTSDDTAVYYCATGGQEDYWGQGTLVTVSSGGGGSGGGGSGGGGSEIVLTQSPATLSVSPGERATLSCRASQSVSSNLAWYQQKPGQAPRLLIYGASTRATGIPARFSGSGSGTEFTLTISSLQSEDFAVYYCQQYNSWPPLTFGGGTKVEIK | M⁻¹ s⁻¹ | 376000

Check the records and state kon for EP97-F01 scFv (scFv, VH-VL orientation; not shown: C-terminal flag and 6xHIS tag) scFv: QVQLVQSGAEVKKPGASVKVSCKASGYTFTSYGISWVRQAPGQGLEWMGWISAYNGNTNYAQKLQGRVTMTTDTSTSTAYMELRSLRSDDTAVYYCARDHIAAAGDYWGQGTLVTVSSGGGGSGGGGSGGGGSEIVMTQSPATLSVSPGEGVTLSCRASQSVSSNLAWYQQRPGQAPRLLIYGASIKATDVPDRFSGGGSGTDFTLSITNLQSEDFAVYYCQQYHTWPPVTFGGGTKVEIK 888000

Check the records and state kon for EP35-C6 scFv (scFv, VH-VL orientation; also called EP35-C06; not shown: C-terminal flag and 6xHIS tag) scFv: QVQLVESGGGVVQPGGSLRLSCAASGFPFSRFGIHWVRQAPGKGLDWVAFIRTDGGSQHYADSVKGRFTISRDNSENMVYLQMNSLRVDDTALYYCAKDPPRVTGNTGYDYDWGQGVQVTVSSGGGGSGGGGSGGGGSDIVMTQSPDSLAVSLGERATINCKSSQSVLYSANNKNCLAWYQQKSGQPPKLLIYWASTRESGVPGRFSGSGSGTDFTLTISSLQAEDVAVYYCQQYYSPPRTFGQGTKLEIK 62500
